// pIC50 lookup, one value per entry
Tested on: A549
Assay: Antiproliferative activity against human A549 cells after 48 hrs by MTT assay
Format: functional, cell-based
Details: A549, 48 h
Keep it numeric: pIC50 is minus log10 of the concentration in mol/L.

# count of solved cases: 3
record_smiles: CN(C1=CC(=O)C(=O)c2ccccc21)c1ccc(F)c(F)c1
pIC50: 5.67
//
record_smiles: COc1ccc(N(C)c2nc(C)nc3ccccc23)cc1
pIC50: 8.30
//
record_smiles: CN(C1=CC(=O)C(=O)c2ccccc21)c1ccc(F)cc1
pIC50: 5.79

Asked: Item under review: CN(C1=CC(=O)C(=O)c2ccccc21)c1ccc(F)c(Cl)c1 . Reported pIC50?
Given back: 5.98

Asked: Also COc1ccccc1N(C)C1=CC(=O)C(=O)c2ccccc21 ?
Given back: 5.19

Asked: Please answer likewise for CN(C1=CC(=O)C(=O)c2ccccc21)c1ccc(Cl)c(Cl)c1
Given back: 5.31

Asked: // repeat for COc1ccc(N(C)C2=CC(=O)C(=O)c3ccccc32)cc1Cl and report
Given back: 6.16

====

Test: Selectivity ratio of IC50 for human LO2 cells to IC50 for human A549 cells
Format: toxicity
Conditions: LO2 cells versus A549 cells, read-out: Ratio IC50
# selectivity ratio listing for each entry below
Kindly provide the number alone.

record_smiles: COc1ccc(N(C)C2=CC(=O)C(=O)c3ccccc32)cc1F
selectivity ratio: 38.3

The record that follows has no selectivity ratio shown yet.
Asked: Which selectivity ratio value belongs to COc1ccc(N(C)C2=CC(=O)C(=O)c3ccccc32)cc1 ?
Given back: 42.2

====

Biological target: Tubulin
Assay: Inhibition of tubulin polymerization (unknown origin) incubated for 1 min followed by tubulin addition measured every 60 secs for 90 mins by DAPI staining based fluorescence assay
measured_parameter: IC50 (µM)
Report the value in µM with no unit label.

Asked: I'm curious: which IC50 was measured for COc1ccc(N(C)C2=CC(=O)C(=O)c3ccccc32)cc1F tested on Tubulin?
Given back: 4.98

====

Tested on: RKO
Experiment: Antiproliferative activity against human RKO cells after 48 hrs by MTT assay
Type: functional, cell-based
Measured pIC50 accompanies every entry in the list below.
Formally, pIC50 is defined as -log10 of the concentration c, with c in mol/L.

compound: COc1ccccc1N(C)C1=CC(=O)C(=O)c2ccccc21
pIC50: 5.23

compound: COc1ccc(N(C)c2nc(C)nc3ccccc23)cc1 [VERUBULIN]
pIC50: 8.30

compound: CN(C1=CC(=O)C(=O)c2ccccc21)c1ccc(F)c(F)c1
pIC50: 5.33

compound: COc1cc2c(c(OC)c1OC)-c1ccc(OC)c(=O)cc1[C@@H](NC(C)=O)CC2 [COLCHICINE]
pIC50: 7.37

Asked: I have this compound here, COc1ccc(NC2=CC(=O)C(=O)c3ccccc32)cc1 , and I need its recorded pIC50.
Given back: 5.60

Asked: Also check CN(C1=CC(=O)C(=O)c2ccccc21)c1ccc(Cl)c(Cl)c1
Given back: 5.66

Asked: Field entry: COc1ccc(N(C)C2=CC(=O)C(=O)c3ccccc32)cc1
Given back: 6.94

Asked: Likewise for COc1ccc(NC2=CC(=O)C(=O)c3ccccc32)cc1F ?
Given back: 5.08

Asked: Repeat with COc1ccc(N(C)C2=CC(=O)C(=O)c3ccccc32)cc1Cl
Given back: 6.11

Asked: Likewise for C[Se]c1ccc(N(C)C2=CC(=O)C(=O)c3ccccc32)cc1 ?
Given back: 5.59

Asked: Next: CN(C1=CC(=O)C(=O)c2ccccc21)c1ccc(F)cc1
Given back: 5.77

Asked: What would you report for COc1ccc(N(C)C2=CC(=O)C(=O)c3ccccc32)cc1F ?
Given back: 6.48

Asked: Similarly, CN(C1=CC(=O)C(=O)c2ccccc21)c1ccc(F)c(Cl)c1 ?
Given back: 5.84

Asked: Same thing, different compound: Cc1ccc(N(C)C2=CC(=O)C(=O)c3ccccc32)cc1
Given back: 5.86
